# Target of assay: ER (Homo sapiens (Human), UniProt P03372)
# Sequence (P03372 whole entry): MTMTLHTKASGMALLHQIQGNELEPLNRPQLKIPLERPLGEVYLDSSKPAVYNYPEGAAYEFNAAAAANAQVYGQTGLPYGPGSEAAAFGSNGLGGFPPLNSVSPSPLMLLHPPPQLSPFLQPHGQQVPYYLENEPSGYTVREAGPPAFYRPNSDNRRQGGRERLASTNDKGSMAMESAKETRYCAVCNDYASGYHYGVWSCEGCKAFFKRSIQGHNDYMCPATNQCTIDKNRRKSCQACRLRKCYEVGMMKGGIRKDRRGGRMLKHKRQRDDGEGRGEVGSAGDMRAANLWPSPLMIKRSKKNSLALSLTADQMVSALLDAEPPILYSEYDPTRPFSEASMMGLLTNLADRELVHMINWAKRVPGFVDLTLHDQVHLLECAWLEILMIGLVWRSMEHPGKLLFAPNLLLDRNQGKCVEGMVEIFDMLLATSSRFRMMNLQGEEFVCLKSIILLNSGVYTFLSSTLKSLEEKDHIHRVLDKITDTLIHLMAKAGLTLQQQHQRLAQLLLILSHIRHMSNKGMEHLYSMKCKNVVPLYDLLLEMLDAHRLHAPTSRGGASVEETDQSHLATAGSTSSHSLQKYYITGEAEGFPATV
# Assay text: In-cell western blot analysis of ER for "B" compounds
# Format: cell-based
# Experimental context: 16 hours, read-out: ICW DC50
Measure name: DC50

Notebook: O=C1CCC(N2Cc3cc4c(cc3C2=O)OC[C@@H]2CN(CC(=O)N3CCC5(CC3)CCN(c3ccc([C@@H]6c7ccc(O)cc7CC[C@@H]6c6ccccc6)cc3)CC5)CCN42)C(=O)N1 (stereo partly drawn) , DC50 read as 10 to 100 nM

Notebook: O=C1CCC(N2Cc3cc4c(cc3C2=O)OC[C@@H]2CN(C(=O)CN3CC5(CC(Nc6ccc([C@@H]7c8ccc(O)cc8CC[C@@H]7c7ccccc7)cc6)C5)C3)CCN42)C(=O)N1 (stereo partly drawn) , DC50 read as < 10 nM

Notebook: O=C1CCC(N2Cc3c(ccc4c3OC[C@H]3CN(C[C@H]5CC[C@H](Nc6ccc([C@@H]7c8ccc(O)cc8CC[C@@H]7c7ccccc7)cc6)CC5)CCN43)C2=O)C(=O)N1 (stereo partly drawn) , DC50 read as < 10 nM

The reported measurements were obtained from patent US20260028354A1.
